Target: Sodium-dependent noradrenaline transporter (Homo sapiens, UniProt P23975)
Sequence (P23975 whole entry): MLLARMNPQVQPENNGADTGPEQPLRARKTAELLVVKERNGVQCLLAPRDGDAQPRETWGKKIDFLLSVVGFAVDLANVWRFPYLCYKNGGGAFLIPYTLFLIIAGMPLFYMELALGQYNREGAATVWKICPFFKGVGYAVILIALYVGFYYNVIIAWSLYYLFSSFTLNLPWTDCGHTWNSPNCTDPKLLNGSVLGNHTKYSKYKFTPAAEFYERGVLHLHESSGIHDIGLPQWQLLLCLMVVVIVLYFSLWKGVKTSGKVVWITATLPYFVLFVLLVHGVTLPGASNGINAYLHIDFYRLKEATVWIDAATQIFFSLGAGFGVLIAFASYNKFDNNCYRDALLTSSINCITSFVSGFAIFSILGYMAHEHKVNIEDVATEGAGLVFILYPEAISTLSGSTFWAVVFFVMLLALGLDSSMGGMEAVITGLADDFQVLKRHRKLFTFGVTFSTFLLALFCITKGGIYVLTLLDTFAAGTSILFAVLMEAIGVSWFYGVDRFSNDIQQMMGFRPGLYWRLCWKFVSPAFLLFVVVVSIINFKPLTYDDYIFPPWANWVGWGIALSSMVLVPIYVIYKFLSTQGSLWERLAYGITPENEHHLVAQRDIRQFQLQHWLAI
Test: Displacement of [N-methyl-3H]nisoxetine from human recombinant NET expressed in pig LLCPK cells after 2 hrs by liquid scintillation counting
Format: cell-based
For each of the compounds below, state its Ki.
Give the quantity in nM, number only.

Prompt: Query Ki for COC[C@@H]1[C@@H]2CNCC[C@]12c1ccc(Cl)c(Cl)c1 (racemic)
Response: 316

Prompt: Query Ki for Clc1ccc([C@@H]2CCNC[C@@]23CCCOC3)cc1Cl
Response: 3.98

Prompt: Query Ki for COC[C@@]12CCNC[C@]1(c1ccc(Cl)c(Cl)c1)C2 (single isomer, unassigned)
Response: 1000

Prompt: Query Ki for COC[C@@]12CCNC[C@]1(c1ccc(Cl)c(Cl)c1)C2 (relative stereo)
Response: 100

Prompt: Query Ki for COC[C@@]12CNCC[C@]1(c1ccc(Cl)c(Cl)c1)C2 (relative stereo; 18) [GSK1360707]
Response: 126

Prompt: Query Ki for COC[C@@]12CNCC[C@]1(c1ccc3ccccc3c1)C2 (single isomer, unassigned; 27)
Response: 39.8

Prompt: Query Ki for COC[C@@]12CNCC[C@]1(c1ccc(F)c(Cl)c1)C2 (racemic)
Response: 316

Prompt: Query Ki for CCOC[C@@]12CNCC[C@]1(c1ccc(Cl)c(Cl)c1)C2 (relative stereo; 31)
Response: 7.94

Prompt: Query Ki for COC[C@@]12CNC[C@H](OC)[C@]1(c1ccc(Cl)c(Cl)c1)C2 (racemic)
Response: 1260

---

Target: Sodium-dependent noradrenaline transporter (Mus musculus)
Sequence (O55192 whole entry): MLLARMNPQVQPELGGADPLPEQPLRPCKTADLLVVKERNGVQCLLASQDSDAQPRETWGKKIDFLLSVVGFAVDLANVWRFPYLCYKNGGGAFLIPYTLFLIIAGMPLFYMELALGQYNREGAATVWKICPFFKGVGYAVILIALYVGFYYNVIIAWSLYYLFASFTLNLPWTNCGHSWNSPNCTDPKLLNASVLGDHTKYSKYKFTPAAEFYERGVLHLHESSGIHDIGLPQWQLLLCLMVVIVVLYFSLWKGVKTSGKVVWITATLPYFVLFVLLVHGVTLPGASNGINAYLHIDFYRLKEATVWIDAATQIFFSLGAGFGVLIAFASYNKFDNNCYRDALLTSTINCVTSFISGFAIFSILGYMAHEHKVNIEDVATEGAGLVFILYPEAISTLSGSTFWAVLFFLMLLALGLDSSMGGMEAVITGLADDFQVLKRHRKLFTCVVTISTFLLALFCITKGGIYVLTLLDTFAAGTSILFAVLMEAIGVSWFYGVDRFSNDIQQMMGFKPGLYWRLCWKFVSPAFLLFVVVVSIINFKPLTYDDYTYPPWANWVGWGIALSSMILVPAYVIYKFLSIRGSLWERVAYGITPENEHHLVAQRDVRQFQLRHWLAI
REPORTED_PROPERTY: pKi
Units for pKi: none; it is -log10 of a concentration expressed in mol/L.

Prompt: Query pKi for COC[C@@]12CNCC[C@]1(c1ccc(Cl)c(Cl)c1)C2 (relative stereo; 17)
Response: 8.80

---

Assay: Volume of distribution in rat
Format: ADME, organism-based
Conditions: in vivo
REPORTED_PROPERTY: Vd (L/kg)
Give the quantity in L/kg, number only.

Prompt: Query Vd for COC[C@@]12CNCC[C@]1(c1ccc(Cl)c(Cl)c1)C2 (relative stereo; 17) [GSK1360707]
Response: 5.8

---

For each of the compounds below, state its pIC50.
Units for pIC50: none; it is -log10 of a concentration expressed in mol/L.

Prompt: Give pIC50 only, for COC[C@@]12CNCC[C@]1(c1ccc(Cl)c(Cl)c1)C2 (racemic) [GSK1360707] , using UniProt P33261 data.
Sequence (P33261 whole entry): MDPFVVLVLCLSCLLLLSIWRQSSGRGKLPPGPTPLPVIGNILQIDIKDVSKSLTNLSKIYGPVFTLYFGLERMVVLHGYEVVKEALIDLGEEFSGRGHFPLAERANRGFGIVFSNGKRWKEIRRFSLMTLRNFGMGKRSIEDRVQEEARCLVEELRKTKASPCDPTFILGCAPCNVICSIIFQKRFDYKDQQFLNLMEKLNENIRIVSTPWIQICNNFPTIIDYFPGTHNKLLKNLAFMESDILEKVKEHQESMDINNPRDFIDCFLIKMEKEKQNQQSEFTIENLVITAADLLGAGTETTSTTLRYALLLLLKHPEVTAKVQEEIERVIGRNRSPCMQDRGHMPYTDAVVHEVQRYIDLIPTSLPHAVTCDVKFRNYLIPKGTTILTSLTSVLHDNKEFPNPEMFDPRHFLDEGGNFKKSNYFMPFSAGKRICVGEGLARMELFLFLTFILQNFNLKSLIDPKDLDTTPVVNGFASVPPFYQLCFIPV
Response: 5.00

Prompt: Give pIC50 only, for COC[C@@]12CNCC[C@]1(c1ccc(Cl)c(Cl)c1)C2 (relative stereo; 17) [GSK1360707] , using UniProt P33261 data.
Response: 5.00

Prompt: Give pIC50 only, for COC[C@@]12CNCC[C@]1(c1ccc(Cl)c(Cl)c1)C2 (relative stereo; 18) [GSK1360707] , using UniProt P33261 data.
Response: 5.00

Prompt: Give pIC50 only, for COC[C@@]12CNCC[C@]1(c1ccc3ccccc3c1)C2 (single isomer, unassigned; 28) , using UniProt P33261 data.
Response: 5.10

Prompt: Give pIC50 only, for C=CCC(OC)[C@]12CNCC[C@]1(c1ccc(Cl)c(Cl)c1)C2 (mixture of isomers; form 1) , using UniProt P33261 data.
Response: 5.52
